B1: HDV Ribozyme (parent)
chain: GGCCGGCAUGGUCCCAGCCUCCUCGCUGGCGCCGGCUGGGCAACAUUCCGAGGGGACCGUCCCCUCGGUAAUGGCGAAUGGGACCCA

variants of: B1; experiment: self-cleavage, relative activity (ratio to wild type); higher = more cleavage; co-transcriptional
Binary call on self-cleavage: met from 0.6 upward, not met beneath that.

Please review the entries below; each comes with its answer.
>  <variant-key>
C14A G29C

>  <label-value>
not met

$$$$
>  <variant-key>
G5U G25U

>  <label-value>
not met

$$$$
>  <variant-key>
C32G C48G

>  <label-value>
not met

$$$$
>  <variant-key>
G6A C44G

>  <label-value>
not met

$$$$

Request: hey, is self-cleavage for this one >= 0.6? C14G G80C
Response: not met

Request: In plain terms: is recorded self-cleavage at least 0.6 for G50A A78U ?
Response: not met

Request: Hello, I need to know if C13A C26A has measured self-cleavage not below 0.6. Thanks!
Response: met

Request: Exam item: decide whether the reported self-cleavage for G40U G80A is at least 0.6.
Response: not met

Request: Hi, just wondering whether G35U G80U shows self-cleavage of 0.6 or higher.
Response: not met

Request: Does self-cleavage meet or surpass 0.6 for U23G A45G ?
Response: met

Request: Record C13U U23C ; criterion: self-cleavage no lower than 0.6. Met?
Response: not met

Request: Does self-cleavage meet or surpass 0.6 for G25A A51G ?
Response: not met

Request: Could you verify whether the entry G5U G52U shows self-cleavage of no less than 0.6?
Response: not met

Request: Hi team, for A42C C86G , is the recorded self-cleavage at or above 0.6?
Response: not met

Request: Item C84G A87G with self-cleavage of 0.6 or above?
Response: not met
